Listed here: items and their measured log10(Kd).
Biological target: T1, EsCas13d, nuclease-dead (Eubacterium siraeum, UniProt B0MS50, R295A;H300A;R849A;H854A)
T1 sequence: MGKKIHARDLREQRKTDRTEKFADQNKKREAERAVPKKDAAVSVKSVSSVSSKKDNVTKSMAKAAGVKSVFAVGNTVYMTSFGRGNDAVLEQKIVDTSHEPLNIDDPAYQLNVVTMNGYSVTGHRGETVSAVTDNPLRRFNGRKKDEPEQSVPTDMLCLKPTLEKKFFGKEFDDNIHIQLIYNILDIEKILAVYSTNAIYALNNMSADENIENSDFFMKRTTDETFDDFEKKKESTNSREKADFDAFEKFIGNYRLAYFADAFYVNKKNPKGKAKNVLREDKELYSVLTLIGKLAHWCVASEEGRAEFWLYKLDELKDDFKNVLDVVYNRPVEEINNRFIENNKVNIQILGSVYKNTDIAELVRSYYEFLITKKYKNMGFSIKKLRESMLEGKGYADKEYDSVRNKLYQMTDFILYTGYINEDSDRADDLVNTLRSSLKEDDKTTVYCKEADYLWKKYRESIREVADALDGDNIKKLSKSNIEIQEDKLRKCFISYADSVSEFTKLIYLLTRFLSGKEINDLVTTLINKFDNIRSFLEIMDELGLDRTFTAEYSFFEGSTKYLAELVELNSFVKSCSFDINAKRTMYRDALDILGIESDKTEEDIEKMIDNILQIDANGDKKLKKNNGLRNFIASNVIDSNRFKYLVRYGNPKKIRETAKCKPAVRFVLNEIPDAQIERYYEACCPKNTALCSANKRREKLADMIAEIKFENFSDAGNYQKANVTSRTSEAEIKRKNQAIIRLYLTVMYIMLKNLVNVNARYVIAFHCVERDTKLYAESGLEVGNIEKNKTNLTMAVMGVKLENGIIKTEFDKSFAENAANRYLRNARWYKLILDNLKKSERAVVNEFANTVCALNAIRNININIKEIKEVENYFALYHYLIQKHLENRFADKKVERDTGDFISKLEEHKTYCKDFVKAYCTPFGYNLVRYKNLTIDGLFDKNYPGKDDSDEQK
Test: crRNA (strand 1, pre-loaded); Mg2+; 40 mM Tris-HCl pH 7.5, 150 mM NaCl, 6 mM MgCl2, 1 mM DTT, 0.1% Tween-20, 0.2 mg/ml BSA; 25 C; 10 min per concentration, then washed
Conditions: tags: His6-TwinStrep-SUMO cleaved; N-terminal SNAP kept (SNAP-Surface 488); label: 3' end held by stalled T7 RNA polymerase
All values: base-10 log of Kd in nM.

binder	log10(Kd)
target 1 U3C,C7G (mixed) RNA 1: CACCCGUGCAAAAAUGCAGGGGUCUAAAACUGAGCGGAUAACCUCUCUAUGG RNA 2: GGGAAUGGAUCCACAUCUACGAAUUCGUACCAUAGAGAGGUUAUGCGCCCACCGAGAUCGGAAGAGCACACGU	0.93
target 1 MT 5'PFS AGG 3'PFS UAG (mixed) RNA 1: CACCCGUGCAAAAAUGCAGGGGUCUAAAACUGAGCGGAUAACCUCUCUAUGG RNA 2: GGGAAUGGAUCCACAUCUACGAAUUCAGGCCAUAGAGAGGUUAUCCGCUCAUAGAGAUCGGAAGAGCACACGU	1.36
target 2 MT 5'PFS ACG 3'PFS UUC (mixed) RNA 1: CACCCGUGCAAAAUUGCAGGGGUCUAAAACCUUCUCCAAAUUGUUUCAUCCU RNA 2: GGGAAUGGAUCCACAUCUACGAAUUCACGAGGAUGAAACAAUUUGGAGAAGUUCAGAUCGGAAGAGCACACGU	1.20
target 1 C4G,C7A (mixed) RNA 1: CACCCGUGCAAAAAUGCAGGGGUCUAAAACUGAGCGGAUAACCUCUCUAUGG RNA 2: GGGAAUGGAUCCACAUCUACGAAUUCGUACCAUAGAGAGGUUAUACGGUCACCGAGAUCGGAAGAGCACACGU	0.85
target 1 U19C,A20C (mixed) RNA 1: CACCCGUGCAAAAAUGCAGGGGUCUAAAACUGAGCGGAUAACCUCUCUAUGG RNA 2: GGGAAUGGAUCCACAUCUACGAAUUCGUACCCCAGAGAGGUUAUCCGCUCACCGAGAUCGGAAGAGCACACGU	1.97

Input line: Answer with reported log10(Kd) of target 1 MT 5'PFS GUC 3'PFS AUA (mixed) RNA 1: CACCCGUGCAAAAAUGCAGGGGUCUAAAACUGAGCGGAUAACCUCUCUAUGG RNA 2: GGGAAUGGAUCCACAUCUACGAAUUCGUCCCAUAGAGAGGUUAUCCGCUCAAUAAGAUCGGAAGAGCACACGU
Output line: 1.41

Input line: Answer with reported log10(Kd) of target 1 MT 5'PFS GGG 3'PFS ACC (mixed) RNA 1: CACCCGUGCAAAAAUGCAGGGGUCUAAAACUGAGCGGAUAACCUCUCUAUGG RNA 2: GGGAAUGGAUCCACAUCUACGAAUUCGGGCCAUAGAGAGGUUAUCCGCUCAACCAGAUCGGAAGAGCACACGU
Output line: 1.41

Input line: Answer with reported log10(Kd) of target 3 A5C,C6G (mixed) RNA 1: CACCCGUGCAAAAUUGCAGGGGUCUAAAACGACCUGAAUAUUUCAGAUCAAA RNA 2: GGGAAUGGAUCCACAUCUACGAAUUCGUUUUUGAUCUGAAAUAUUGCGGUCUGCAGAUCGGAAGAGCACACGU
Output line: 1.73

Ref: paper PMC10786891
